study-target: Phenylethanolamine N-methyltransferase (Bos taurus) (UniProt P10938)
Sequence (P10938 whole entry): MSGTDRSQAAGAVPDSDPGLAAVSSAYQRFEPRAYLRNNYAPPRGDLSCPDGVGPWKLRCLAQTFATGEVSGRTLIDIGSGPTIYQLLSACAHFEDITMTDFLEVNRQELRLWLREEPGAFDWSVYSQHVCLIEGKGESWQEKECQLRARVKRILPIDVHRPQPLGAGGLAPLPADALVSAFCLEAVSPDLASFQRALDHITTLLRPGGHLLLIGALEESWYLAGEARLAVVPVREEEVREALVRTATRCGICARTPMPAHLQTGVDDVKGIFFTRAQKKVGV
experimental-details: Inhibition of bovine adrenal medulla PNMT at 0.2 mM by radiochemical technique
reported-property: inhibition (%)
Quick note: give the figure in %, leave out the unit.

Asked: For the molecule shown here, Nc1ncnc2c1ncn2[C@@H](CO)O[C@@H](CO)C[S+]([O-])CC[C@@H](N)C(=O)O (stereo partly drawn) , give the reported inhibition.
Given back: 9

Asked: Do the same for "Nc1ncnc2c1ncn2[C@@H]1O[C@H](CSCC[C@H](N)C(=O)O)[C@@H](O)[C@H]1O" please
Given back: 49

Asked: Do the same for Nc1ncnc2c1ncn2[C@@H]1O[C@H](C[S+]([O-])CC[C@@H](N)C(=O)O)[C@@H](O)[C@H]1O (stereo partly drawn) please
Given back: 10

Asked: Do the same for "Nc1ncnc2c1nnn2[C@@H](CO)O[C@@H](CO)CSCC[C@@H](N)C(=O)O" please
Given back: 0

Asked: Do the same for Nc1ncnc2c1ncn2[C@@H]1O[C@H](CSCCC(N)C(=O)O)[C@@H](O)[C@H]1O (single isomer, unassigned) please
Given back: 14

Asked: Do the same for "Nc1ncnc2c1ncn2[C@@H](CO)O[C@@H](CO)CSCC[C@@H](N)C(=O)O" please
Given back: 8

Asked: Do the same for "Nc1ncnc2c1ncn2[C@@H](CO)O[C@@H](CO)CSC[C@@H](N)C(=O)O" please
Given back: 10

Asked: Do the same for C[S+](CC[C@@H](N)C(=O)O)C[C@H](CO)O[C@H](CO)n1cnc2c(N)ncnc21 (stereo partly drawn) please
Given back: 1
